Hey, just so you know, these numbers are from ChEMBL document CHEMBL4422636.

# target-or-system: Glutamate receptor ionotropic, NMDA 2B (Rattus norvegicus) (UniProt Q00960)
# Sequence (Q00960 27-1482 limits assumed): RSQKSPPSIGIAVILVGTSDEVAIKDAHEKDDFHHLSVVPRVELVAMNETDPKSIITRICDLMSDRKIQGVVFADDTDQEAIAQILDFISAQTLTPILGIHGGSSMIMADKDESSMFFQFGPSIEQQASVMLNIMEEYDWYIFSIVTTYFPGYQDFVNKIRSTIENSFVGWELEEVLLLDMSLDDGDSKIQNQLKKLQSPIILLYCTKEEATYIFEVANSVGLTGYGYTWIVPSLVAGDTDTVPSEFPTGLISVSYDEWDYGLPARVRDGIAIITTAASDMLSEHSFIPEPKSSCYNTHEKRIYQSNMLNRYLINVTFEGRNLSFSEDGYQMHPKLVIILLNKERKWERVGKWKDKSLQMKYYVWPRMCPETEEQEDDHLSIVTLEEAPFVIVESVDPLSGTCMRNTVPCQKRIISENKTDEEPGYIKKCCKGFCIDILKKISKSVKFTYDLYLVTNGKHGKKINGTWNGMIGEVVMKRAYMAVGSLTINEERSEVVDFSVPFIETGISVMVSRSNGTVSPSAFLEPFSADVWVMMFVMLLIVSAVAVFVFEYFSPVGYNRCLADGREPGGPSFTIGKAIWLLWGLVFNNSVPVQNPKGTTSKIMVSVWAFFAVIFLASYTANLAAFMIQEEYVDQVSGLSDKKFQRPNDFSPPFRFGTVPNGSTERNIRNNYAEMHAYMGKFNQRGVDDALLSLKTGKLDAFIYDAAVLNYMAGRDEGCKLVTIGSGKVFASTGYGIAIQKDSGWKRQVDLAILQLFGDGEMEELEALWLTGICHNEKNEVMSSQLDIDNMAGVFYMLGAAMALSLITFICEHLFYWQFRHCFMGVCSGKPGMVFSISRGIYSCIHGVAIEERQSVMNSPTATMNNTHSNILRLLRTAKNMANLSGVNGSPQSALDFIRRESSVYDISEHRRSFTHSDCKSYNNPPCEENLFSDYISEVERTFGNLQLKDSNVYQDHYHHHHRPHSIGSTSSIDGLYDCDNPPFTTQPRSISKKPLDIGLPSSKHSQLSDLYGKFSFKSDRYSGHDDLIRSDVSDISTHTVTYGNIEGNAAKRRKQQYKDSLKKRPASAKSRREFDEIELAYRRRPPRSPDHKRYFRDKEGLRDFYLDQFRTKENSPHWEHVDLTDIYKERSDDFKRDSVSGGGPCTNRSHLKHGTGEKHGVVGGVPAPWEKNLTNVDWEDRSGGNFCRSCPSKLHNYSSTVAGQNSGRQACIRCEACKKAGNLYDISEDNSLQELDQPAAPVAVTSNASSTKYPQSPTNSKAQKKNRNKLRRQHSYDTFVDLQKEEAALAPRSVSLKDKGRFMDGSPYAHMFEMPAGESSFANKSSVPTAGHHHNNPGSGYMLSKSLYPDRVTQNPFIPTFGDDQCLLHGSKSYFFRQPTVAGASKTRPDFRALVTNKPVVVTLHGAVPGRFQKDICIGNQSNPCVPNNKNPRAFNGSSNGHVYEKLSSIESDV
# assay-notes: Allosteric modulation of rat GluN2B expressed in Xenopus laevis oocytes assessed as L-glutamate/glycine-induced current response at 100 uM at holding potential -60 mV by two-electrode voltage clamp method relative to L-glutamate/glycine
# Type: cell-based
measure: Activity (%)

Answered examples (6):
{"molecule": "O=C(O)c1cc2cc(/C=C/c3ccccc3)ccc2cc1O", "target-or-system": "Glutamate receptor ionotropic, NMDA 2B (Rattus norvegicus) (UniProt Q00960)", "measurement-units": "%", "Activity": 7.3}
{"molecule": "CCC/C=C/c1ccc2cc(C(=O)O)ccc2c1", "target-or-system": "Glutamate receptor ionotropic, NMDA 2B (Rattus norvegicus) (UniProt Q00960)", "measurement-units": "%", "Activity": 58}
{"molecule": "O=C(O)c1cc2cc(/C=C/c3ccccc3)ccc2oc1=O", "target-or-system": "Glutamate receptor ionotropic, NMDA 2B (Rattus norvegicus) (UniProt Q00960)", "measurement-units": "%", "Activity": 92}
{"molecule": "COc1cccc(/C=C/c2ccc3cc(O)c(C(=O)O)cc3c2)c1", "target-or-system": "Glutamate receptor ionotropic, NMDA 2B (Rattus norvegicus) (UniProt Q00960)", "measurement-units": "%", "Activity": 24.9}
{"molecule": "O=C(O)c1ccc2cc(C3CC3)ccc2c1", "target-or-system": "Glutamate receptor ionotropic, NMDA 2B (Rattus norvegicus) (UniProt Q00960)", "measurement-units": "%", "Activity": 97}
{"molecule": "CC(C)CSCc1ccc2cc(C(=O)O)ccc2c1", "target-or-system": "Glutamate receptor ionotropic, NMDA 2B (Rattus norvegicus) (UniProt Q00960)", "measurement-units": "%", "Activity": 77}

[A] CC(C)CCCc1ccc2cc(O)c(C(=O)O)cc2c1
[B] CC(C)CC(Cc1ccc2cc(C(=O)O)ccc2c1)C(=O)O (racemic)
Min Activity? A | B Lab log: write the label of the selected item as the result.
B

[I] CC(C)C/C=C/c1ccc2cc(C(=O)O)ccc2c1
[II] CC(CCCc1ccc2cc(C(=O)O)ccc2c1)C(=O)O (racemic)
[III] CC(C)COCc1ccc2cc(C(=O)O)ccc2c1
[IV] CC(C)CCC(C)c1ccc2cc(C(=O)O)ccc2c1 (racemic)
Hello, I need these entries ordered by Activity, highest reading first. Thanks! Labels, ranked as asked.
IV, I, II, III
(IV: 225%, I: 152%, II: 85%, III: 49%)
